tested on: 3T3-L1 pre adipocytes; assay: Cell toxicity of compounds at various doses; type: cell-based; conditions: 20 μM, Day 2, 3T3-L1 pre adipocytes
measurementName: Cell toxicity

Reference set, count: 4
| compound | Cell toxicity |
| --- | --- |
| N#CC(Nc1ccc([B-](F)(F)F)cc1)c1ccco1 (centres unmarked) | 10-15% |
| Cc1cc(C(C#N)Nc2ccc(B3OC(C)(C)C(C)(C)O3)cc2)no1 (centres unmarked) | 15-20% |
| N#CC(Nc1ccc([B-](F)(F)F)cc1)c1cc(-c2ccc(F)cc2)on1 (centres unmarked) | 10-15% |
| CC1(C)OB(c2ccc(NC(C#N)c3cc(-c4ccccc4)on3)cc2)OC1(C)C (centres unmarked) | 20-30% |

Name the recorded Cell toxicity for CC1(C)OB(c2ccc(NC(C#N)c3cc(-c4ccc(F)cc4)on3)cc2)OC1(C)C (centres unmarked) .
≧10%

* * *

tested on: 3T3-L1 pre adipocytes; assay: Cell toxicity of compounds at various doses; type: cell-based; conditions: 20 μM, Day 4, 3T3-L1 pre adipocytes
measurementName: Cell toxicity

Reference set, count: 4
| molecule | measValue |
| --- | --- |
| CC1(C)OB(c2ccc(NC(C#N)c3cc(-c4ccccc4)on3)cc2)OC1(C)C (centres unmarked) [Compound 2] | 60-70% |
| CC1(C)OB(c2ccc(NC(C#N)c3cc(-c4ccc(F)cc4)on3)cc2)OC1(C)C (centres unmarked) [Compound 1] | 10-15% |
| N#CC(Nc1ccc([B-](F)(F)F)cc1)c1ccco1 (centres unmarked) [Compound 5] | 10-15% |
| N#CC(Nc1ccc([B-](F)(F)F)cc1)c1cc(-c2ccc(F)cc2)on1 (centres unmarked) [Compound 4] | ≧15% |

Kindly review the next molecule as well.
Name the recorded Cell toxicity for Cc1cc(C(C#N)Nc2ccc(B3OC(C)(C)C(C)(C)O3)cc2)no1 (centres unmarked) [Compound 3] .
20-30%

* * *

system: 3T3-L1 pre adipocytes; assay: Cell toxicity of compounds at various doses; format: cell-based; conditions: 20 μM, Day 3, 3T3-L1 pre adipocytes
measurementName: Cell toxicity

| compound | Cell toxicity |
| --- | --- |
| N#CC(Nc1ccc([B-](F)(F)F)cc1)c1ccco1 (centres unmarked) | 10-15% |
| Cc1cc(C(C#N)Nc2ccc(B3OC(C)(C)C(C)(C)O3)cc2)no1 (centres unmarked) | >20% |
| CC1(C)OB(c2ccc(NC(C#N)c3cc(-c4ccc(F)cc4)on3)cc2)OC1(C)C (centres unmarked) | ≧10% |
| CC1(C)OB(c2ccc(NC(C#N)c3cc(-c4ccccc4)on3)cc2)OC1(C)C (centres unmarked) | 40-50% |

Kindly review the next compound as well.
Name the recorded Cell toxicity for N#CC(Nc1ccc([B-](F)(F)F)cc1)c1cc(-c2ccc(F)cc2)on1 (centres unmarked) .
≧15%

* * *

System: 3T3-L1 pre adipocytes
Assay: Cell toxicity of compounds at various doses
Format: cell-based
Conditions: 10 μM, Day 1, 3T3-L1 pre adipocytes
Description: For the following screens, compounds 1-5 were dissolved in DMSO. 3T3-L1 pre adipocytes were first exposed to different concentrations (5 μM, 10 μM, 20 μM, 50 μM and 100 μM) of the compounds to test for toxicity compared with DMSO control exposure. Exposure to other concentrations was followed until Day 5. Compound 2 was the most toxic at 20 μM on Day 5.
Would you kindly list Cell toxicity for each of these compounds?

Name the recorded Cell toxicity for N#CC(Nc1ccc([B-](F)(F)F)cc1)c1ccco1 (centres unmarked) .
0-5%

Can you handle CC1(C)OB(c2ccc(NC(C#N)c3cc(-c4ccc(F)cc4)on3)cc2)OC1(C)C (centres unmarked) next?
5-10%

Can you handle N#CC(Nc1ccc([B-](F)(F)F)cc1)c1cc(-c2ccc(F)cc2)on1 (centres unmarked) next?
0-5%

Can you handle Cc1cc(C(C#N)Nc2ccc(B3OC(C)(C)C(C)(C)O3)cc2)no1 (centres unmarked) next?
0-5%

Can you handle CC1(C)OB(c2ccc(NC(C#N)c3cc(-c4ccccc4)on3)cc2)OC1(C)C (centres unmarked) next?
5-10%

* * *

system: 3T3-L1 pre adipocytes; test: Cell toxicity of compounds at various doses; assay type: cell-based; settings: 10 μM, Day 2, 3T3-L1 pre adipocytes
Would you kindly list Cell toxicity for each of these molecules?

Name the recorded Cell toxicity for N#CC(Nc1ccc([B-](F)(F)F)cc1)c1cc(-c2ccc(F)cc2)on1 (centres unmarked) [Compound 4] .
>5%

Can you handle Cc1cc(C(C#N)Nc2ccc(B3OC(C)(C)C(C)(C)O3)cc2)no1 (centres unmarked) [Compound 3] next?
>5%

Can you handle CC1(C)OB(c2ccc(NC(C#N)c3cc(-c4ccc(F)cc4)on3)cc2)OC1(C)C (centres unmarked) [Compound 1] next?
5-10%

Can you handle CC1(C)OB(c2ccc(NC(C#N)c3cc(-c4ccccc4)on3)cc2)OC1(C)C (centres unmarked) [Compound 2] next?
>10%

Can you handle N#CC(Nc1ccc([B-](F)(F)F)cc1)c1ccco1 (centres unmarked) [Compound 5] next?
>5%

* * *

tested on: 3T3-L1 pre adipocytes; assay: Cell toxicity of compounds at various doses; format: cell-based; details: 5 μM, Day 4, 3T3-L1 pre adipocytes
measurementName: Cell toxicity

Name the recorded Cell toxicity for N#CC(Nc1ccc([B-](F)(F)F)cc1)c1ccco1 (centres unmarked) .
0-5%

Can you handle CC1(C)OB(c2ccc(NC(C#N)c3cc(-c4ccc(F)cc4)on3)cc2)OC1(C)C (centres unmarked) next?
0-5%

Can you handle CC1(C)OB(c2ccc(NC(C#N)c3cc(-c4ccccc4)on3)cc2)OC1(C)C (centres unmarked) next?
10-20%

Can you handle Cc1cc(C(C#N)Nc2ccc(B3OC(C)(C)C(C)(C)O3)cc2)no1 (centres unmarked) next?
0-5%

Can you handle N#CC(Nc1ccc([B-](F)(F)F)cc1)c1cc(-c2ccc(F)cc2)on1 (centres unmarked) next?
0-5%

* * *

Would you kindly list Cell toxicity for each of these molecules?
tested on: 3T3-L1 pre adipocytes; test: Cell toxicity of compounds at various doses; format: cell-based; conditions: 50 μM, Day 1, 3T3-L1 pre adipocytes

Report Cell toxicity for CC1(C)OB(c2ccc(NC(C#N)c3cc(-c4ccc(F)cc4)on3)cc2)OC1(C)C (centres unmarked) tested on 3T3-L1 pre adipocytes.
30-40%

Can you handle N#CC(Nc1ccc([B-](F)(F)F)cc1)c1cc(-c2ccc(F)cc2)on1 (centres unmarked) next?
30-40%

Can you handle N#CC(Nc1ccc([B-](F)(F)F)cc1)c1ccco1 (centres unmarked) next?
>15%

Can you handle Cc1cc(C(C#N)Nc2ccc(B3OC(C)(C)C(C)(C)O3)cc2)no1 (centres unmarked) next?
15-20%

Can you handle CC1(C)OB(c2ccc(NC(C#N)c3cc(-c4ccccc4)on3)cc2)OC1(C)C (centres unmarked) next?
30-40%

* * *

test system: 3T3-L1 pre adipocytes; experiment: Cell toxicity of compounds at various doses; format: cell-based; settings: 20 μM, Day 5, 3T3-L1 pre adipocytes
measurementName: Cell toxicity

Reference set, count: 4
| molecule | Cell toxicity |
| --- | --- |
| N#CC(Nc1ccc([B-](F)(F)F)cc1)c1cc(-c2ccc(F)cc2)on1 (centres unmarked) | ≧15% |
| CC1(C)OB(c2ccc(NC(C#N)c3cc(-c4ccccc4)on3)cc2)OC1(C)C (centres unmarked) | 70-80% |
| CC1(C)OB(c2ccc(NC(C#N)c3cc(-c4ccc(F)cc4)on3)cc2)OC1(C)C (centres unmarked) | 10-15% |
| N#CC(Nc1ccc([B-](F)(F)F)cc1)c1ccco1 (centres unmarked) | 10-15% |

Kindly review the next molecule as well.
Name the recorded Cell toxicity for Cc1cc(C(C#N)Nc2ccc(B3OC(C)(C)C(C)(C)O3)cc2)no1 (centres unmarked) .
≧30%

* * *

tested on: 3T3-L1 pre adipocytes; assay: Cell toxicity of compounds at various doses; assay type: cell-based; details: 100 μM, Day 1, 3T3-L1 pre adipocytes
Would you kindly list Cell toxicity for each of these compounds?

Report Cell toxicity for Cc1cc(C(C#N)Nc2ccc(B3OC(C)(C)C(C)(C)O3)cc2)no1 (centres unmarked) tested on 3T3-L1 pre adipocytes.
60-70%

Can you handle CC1(C)OB(c2ccc(NC(C#N)c3cc(-c4ccccc4)on3)cc2)OC1(C)C (centres unmarked) next?
>90%

Can you handle CC1(C)OB(c2ccc(NC(C#N)c3cc(-c4ccc(F)cc4)on3)cc2)OC1(C)C (centres unmarked) next?
>90%

Can you handle N#CC(Nc1ccc([B-](F)(F)F)cc1)c1cc(-c2ccc(F)cc2)on1 (centres unmarked) next?
>90%

Can you handle N#CC(Nc1ccc([B-](F)(F)F)cc1)c1ccco1 (centres unmarked) next?
>90%

* * *

test system: 3T3-L1 pre adipocytes; experiment: Cell toxicity of compounds at various doses; format: cell-based; details: 10 μM, Day 3, 3T3-L1 pre adipocytes
measurementName: Cell toxicity

| molecule | Cell toxicity |
| --- | --- |
| CC1(C)OB(c2ccc(NC(C#N)c3cc(-c4ccc(F)cc4)on3)cc2)OC1(C)C (centres unmarked) [Compound 1] | 5-10% |
| Cc1cc(C(C#N)Nc2ccc(B3OC(C)(C)C(C)(C)O3)cc2)no1 (centres unmarked) [Compound 3] | ≧10% |
| CC1(C)OB(c2ccc(NC(C#N)c3cc(-c4ccccc4)on3)cc2)OC1(C)C (centres unmarked) [Compound 2] | ≧10% |
| N#CC(Nc1ccc([B-](F)(F)F)cc1)c1ccco1 (centres unmarked) [Compound 5] | ≧10% |

Name the recorded Cell toxicity for N#CC(Nc1ccc([B-](F)(F)F)cc1)c1cc(-c2ccc(F)cc2)on1 (centres unmarked) [Compound 4] .
≧10%
